Quick list: self-cleavage per entry.
B1: HDV Ribozyme (parent)
chain: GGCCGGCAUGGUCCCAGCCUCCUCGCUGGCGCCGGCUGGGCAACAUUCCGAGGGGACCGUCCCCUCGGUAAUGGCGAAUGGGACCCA

Variants of: B1
Experiment: self-cleavage, relative activity (ratio to wild type); higher = more cleavage; co-transcriptional
// keep it numeric: no unit symbol after the value

The examples below pair each entry with its known result.
# Mutation name, self-cleavage
records = [
    ("G35A A71U", 0.389),
    ("A8U G73U", 0.199),
    ("C13G U27G", 0.396),
    ("G39A G73C", 0.205),
]

API: the following record is the query input.
Prompt: I would be grateful if you could share the reported self-cleavage for G6C C86U .
Response: 0.403
